B1: MMP1 (parent)
chain: FHGTRQYKFDPKTKRILTLQKANS

- Variants of: B1
- method summary: protein stability index of a GFP-peptide fusion (GPS, HEK-293T) (PSI 1-6); higher = more stable;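 further: lentivirally expressed fusions sorted by FACS into six bins by GFP to DsRed ratio, PSI derived from sequencing read proportions per bin multiplied by bin number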
- setup conditions: c terminus: a fixed tail appended

>  <chain sequence>
FHGTRQYKFDPKSKRILTLQKANS

>  <protein stability index>
1.99

$$$$
>  <chain sequence>
FHGTRQYKFDPKTKIILTLQKANS

>  <protein stability index>
2.05

$$$$
>  <chain sequence>
FHGTRQYKFDPKNKRILTLQKANS

>  <protein stability index>
1.96

$$$$
>  <chain sequence>
FHGTRQYKFDPKTKRILTLQKRNS

>  <protein stability index>
1.65

$$$$
>  <chain sequence>
FHGTRQYKFIPKTKRILTLQKANS

>  <protein stability index>
2.14

$$$$
>  <chain sequence>
FHGTRQYKFDPKTKRILLLQKANS

>  <protein stability index>
1.58

$$$$
>  <chain sequence>
FHGTRQTKFDPKTKRILTLQKANS

>  <protein stability index>
1.89

$$$$
>  <chain sequence>
FHGTRQYKFDPKTKMILTLQKANS

>  <protein stability index>
1.47

$$$$
>  <chain sequence>
FHGTRQYKWDPKTKRILTLQKANS

>  <protein stability index>
2.27

$$$$
>  <chain sequence>
FHGTRQYKFDPKTKRILTLEKANS

>  <protein stability index>
2.03

$$$$
>  <chain sequence>
FHGTRQYKFDPKTKRILTLQKAES

>  <protein stability index>
1.91

$$$$
>  <chain sequence>
FHGTRQYKFDPSTKRILTLQKANS

>  <protein stability index>
1.57

$$$$
>  <chain sequence>
PHGTRQYKFDPKTKRILTLQKANS

>  <protein stability index>
3.17

$$$$
>  <chain sequence>
FGGTRQYKFDPKTKRILTLQKANS

>  <protein stability index>
2.55

$$$$
>  <chain sequence>
FVGTRQYKFDPKTKRILTLQKANS

>  <protein stability index>
1.91

$$$$
>  <chain sequence>
FHGTRQPKFDPKTKRILTLQKANS

>  <protein stability index>
2.08

$$$$
>  <chain sequence>
FHGTRQYKFDPKTKRILTLQKAKS

>  <protein stability index>
3.21

$$$$
>  <chain sequence>
FHGTRQYKRDPKTKRILTLQKANS

>  <protein stability index>
2.39

$$$$
>  <chain sequence>
FHGTRQYKMDPKTKRILTLQKANS

>  <protein stability index>
1.67

$$$$
>  <chain sequence>
FHGTRQYKFDPKTKRILNLQKANS

>  <protein stability index>
2.15

$$$$
>  <chain sequence>
FHGTRQYKFDPKTERILTLQKANS

>  <protein stability index>
1.85

$$$$
>  <chain sequence>
FHGTRQYKFDPKTKRILTVQKANS

>  <protein stability index>
2.03

$$$$
>  <chain sequence>
FHGTRQYKFDAKTKRILTLQKANS

>  <protein stability index>
2.31

$$$$
>  <chain sequence>
FHGTRQYKFDQKTKRILTLQKANS

>  <protein stability index>
2.29

$$$$
>  <chain sequence>
FHGTRQYKFDPKTKRITTLQKANS

>  <protein stability index>
2.2

$$$$
>  <chain sequence>
FHGTRQYKFDPKTKRILTLIKANS

>  <protein stability index>
1.78

$$$$
>  <chain sequence>
FHGTRQYKFDPKTKRILTLNKANS

>  <protein stability index>
1.73

$$$$
>  <chain sequence>
FHGTRQYKFDPKTKRIVTLQKANS

>  <protein stability index>
1.73

$$$$
>  <chain sequence>
FHGTRQYKFDPKTKRILTLQKARS

>  <protein stability index>
2.38

$$$$
>  <chain sequence>
FHGKRQYKFDPKTKRILTLQKANS

>  <protein stability index>
2.17

$$$$
>  <chain sequence>
FHGTRAYKFDPKTKRILTLQKANS

>  <protein stability index>
2.15

$$$$
>  <chain sequence>
FHGTRQDKFDPKTKRILTLQKANS

>  <protein stability index>
2.38

$$$$
>  <chain sequence>
FHGTRQYKFDPKTKWILTLQKANS

>  <protein stability index>
1.69

$$$$
>  <chain sequence>
FHGTRQYKFDPKTKRIDTLQKANS

>  <protein stability index>
1.91

$$$$
>  <chain sequence>
HHGTRQYKFDPKTKRILTLQKANS

>  <protein stability index>
3.12

$$$$
>  <chain sequence>
FHGTRQYKFEPKTKRILTLQKANS

>  <protein stability index>
1.7

$$$$
>  <chain sequence>
FHDTRQYKFDPKTKRILTLQKANS

>  <protein stability index>
2.29

$$$$
>  <chain sequence>
FHGTRQYKFDPKTKRNLTLQKANS

>  <protein stability index>
1.84

$$$$
>  <chain sequence>
FHGTRQYKFDPKTKRILTLQKDNS

>  <protein stability index>
1.48

$$$$
>  <chain sequence>
FHNTRQYKFDPKTKRILTLQKANS

>  <protein stability index>
2.77

$$$$
>  <chain sequence>
FHGTRFYKFDPKTKRILTLQKANS

>  <protein stability index>
3.64

$$$$
>  <chain sequence>
FHGTSQYKFDPKTKRILTLQKANS

>  <protein stability index>
1.72

$$$$
>  <chain sequence>
FHGTRQYKFDPKTKRILTLTKANS

>  <protein stability index>
1.8

$$$$
>  <chain sequence>
FHGTRQYKFDPKTKRILTLQKANR

>  <protein stability index>
1.3

$$$$
>  <chain sequence>
FHGTRQYKFDPKTKRINTLQKANS

>  <protein stability index>
1.6

$$$$
>  <chain sequence>
RHGTRQYKFDPKTKRILTLQKANS

>  <protein stability index>
3.31

$$$$
>  <chain sequence>
FHGYRQYKFDPKTKRILTLQKANS

>  <protein stability index>
2.98

$$$$
>  <chain sequence>
FHGTRDYKFDPKTKRILTLQKANS

>  <protein stability index>
1.87

$$$$
>  <chain sequence>
FHGTRQYFFDPKTKRILTLQKANS

>  <protein stability index>
2.76

$$$$
>  <chain sequence>
FHGTRQYKFDPKTKRELTLQKANS

>  <protein stability index>
1.93

$$$$
>  <chain sequence>
FHGTRQYKFDPKTKRILTLQKATS

>  <protein stability index>
1.29

$$$$
>  <chain sequence>
FHGTRQYKFDPHTKRILTLQKANS

>  <protein stability index>
2.21

$$$$
>  <chain sequence>
FHGTRQYNFDPKTKRILTLQKANS

>  <protein stability index>
2.71

$$$$
>  <chain sequence>
FHGTRQYHFDPKTKRILTLQKANS

>  <protein stability index>
1.76

$$$$
>  <chain sequence>
FHGTRQYKFDPKTKEILTLQKANS

>  <protein stability index>
1.83

$$$$
>  <chain sequence>
FHGNRQYKFDPKTKRILTLQKANS

>  <protein stability index>
2.38

$$$$
>  <chain sequence>
FHGTRQYKFDPKTKRILTLQKAPS

>  <protein stability index>
1.67

$$$$
>  <chain sequence>
FHGTRQYKFDPKTKRILTLQVANS

>  <protein stability index>
1.6

$$$$
>  <chain sequence>
FIGTRQYKFDPKTKRILTLQKANS

>  <protein stability index>
2.47

$$$$
>  <chain sequence>
FHGTRQYKFDPKTKRILTLQKANV

>  <protein stability index>
1.79

$$$$
>  <chain sequence>
FHGTRQYKFDPKTKRILTTQKANS

>  <protein stability index>
2.2

$$$$
>  <chain sequence>
FHGTRQYKFDPKTKRFLTLQKANS

>  <protein stability index>
1.64

$$$$
>  <chain sequence>
FHGTRQYKFDPKTKRILTLQIANS

>  <protein stability index>
1.78

$$$$
>  <chain sequence>
FHGTRQYKFDPKTKRISTLQKANS

>  <protein stability index>
1.8

$$$$
>  <chain sequence>
LHGTRQYKFDPKTKRILTLQKANS

>  <protein stability index>
3.05

$$$$
>  <chain sequence>
FHATRQYKFDPKTKRILTLQKANS

>  <protein stability index>
2.02

$$$$
>  <chain sequence>
FHGTRQYKFDPKTKRILTLQQANS

>  <protein stability index>
1.9

$$$$
>  <chain sequence>
FHGTRQYKFDPKTKRILTLQGANS

>  <protein stability index>
1.11

$$$$
>  <chain sequence>
FHGTRQEKFDPKTKRILTLQKANS

>  <protein stability index>
2.5

$$$$
>  <chain sequence>
FHGTRQYKFDPKTKRILHLQKANS

>  <protein stability index>
1.39

$$$$
>  <chain sequence>
IHGTRQYKFDPKTKRILTLQKANS

>  <protein stability index>
3.12

$$$$
>  <chain sequence>
QHGTRQYKFDPKTKRILTLQKANS

>  <protein stability index>
3.32

$$$$
>  <chain sequence>
FHGTRQYKFDPKTKRKLTLQKANS

>  <protein stability index>
1.67

$$$$
